test: VSMC viability (MTS) in CPP2-supplemented medium; type: cell-based, human; settings: human, 30 µM with CPP2; read-out: VSMC viability (MTS), % of medium control
MEASUREMENT_NAME: viability at 48 h, 30 µM (%)
Give the value, in units of %, as a plain number.

viability at 48 h, 30 µM for COCCOCCO[C@@H]1[C@@H](OP(=O)(O)O)[C@H](OCCOCCOC)[C@@H](OP(=O)(O)O)[C@@H](OP(=O)(O)O)[C@H]1OP(=O)(O)O [(OEG2)2-IP4] ?
101

* * *

assay: PK s.c. in healthy and adenine/high-phosphate-diet (uremic) rats; type: in vivo; conditions: male, Sprague-Dawley, rat, serum, sc, 10 mg/kg, 10 mg/kg s.c., Uremic
MEASUREMENT_NAME: half-life (h)
// note: answer is a bare numeric in h

# input compound: "COCCOCCO[C@@H]1[C@@H](OP(=O)(O)O)[C@H](OCCOCCOC)[C@@H](OP(=O)(O)O)[C@@H](OP(=O)(O)O)[C@H]1OP(=O)(O)O" ; wanted: its half-life
2.05

* * *

assay: PK s.c. in healthy and adenine/high-phosphate-diet (uremic) rats; type: in vivo; details: male, Sprague-Dawley, rat, serum, sc, 10 mg/kg, 10 mg/kg s.c., Healthy
MEASUREMENT_NAME: half-life (h)
State the answer as a number, implicitly in h.

Given "COCCOCCO[C@@H]1[C@@H](OP(=O)(O)O)[C@H](OCCOCCOC)[C@@H](OP(=O)(O)O)[C@@H](OP(=O)(O)O)[C@H]1OP(=O)(O)O" , state its recorded half-life.
1.32

* * *

experiment: PK i.v. bolus in healthy and adenine/high-phosphate-diet (uremic) rats; format: in vivo, male Sprague-Dawley rats; settings: male, Sprague-Dawley, rat, serum, iv, 10 mg/kg, 10 mg/kg i.v. bolus, Uremic
MEASUREMENT_NAME: AUC(0-inf) (µM·h)
Give the number; µM·h is assumed, so skip it.

Consider the compound COCCOCCO[C@@H]1[C@@H](OP(=O)(O)O)[C@H](OCCOCCOC)[C@@H](OP(=O)(O)O)[C@@H](OP(=O)(O)O)[C@H]1OP(=O)(O)O [(OEG2)2-IP4] and give its measured AUC(0-inf).
45.6

* * *

experiment: PK in healthy rats, s.c.; type: in vivo, male Sprague-Dawley rats; settings: male, Sprague-Dawley, rat, in vivo, sc; 50 mg/kg s.c.; read-out: Cmax
MEASUREMENT_NAME: Cmax (µM)
Give just the number in µM; leave the unit off.

Given the entry "COCCOCCO[C@@H]1[C@@H](OP(=O)(O)O)[C@H](OCCOCCOC)[C@@H](OP(=O)(O)O)[C@@H](OP(=O)(O)O)[C@H]1OP(=O)(O)O" , report its measured Cmax.
71

* * *

assay: VSMC viability (MTS) in high-CaP medium; format: cell-based, human; conditions: human, 0.1 µM in high-CaP medium; read-out: VSMC viability (MTS), % of medium control
MEASUREMENT_NAME: viability at 5 days, 0.1 µM (%)
Express the result in % but write the number alone.

Given the compound COCCOCCO[C@@H]1[C@@H](OP(=O)(O)O)[C@H](OCCOCCOC)[C@@H](OP(=O)(O)O)[C@@H](OP(=O)(O)O)[C@H]1OP(=O)(O)O [(OEG2)2-IP4] , what is its reported viability at 5 days, 0.1 µM?
72.3
